The measurements presented in this section are drawn from PubChem BioAssay AID434973.

tested on: Sentrin-specific protease 7 (Homo sapiens)
protocol: SENP7 protease inhibitors, primary screen, biochemical, luminescence, uHTS (AID 434973)
run conditions: recombinant SENP7, Z-RLRGG-aminoluciferin luminescence, 40 min; at 5 µM
The whole screen tested about 330,000 compounds, of which about 4,900 (1.5%) were called active.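 Rule for the calls: active = inhibition above about 50% at the single test dose (limit read from the data); inactive = the rest.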 The entries come from a sample that favours actives as a whole.
Your reply should match one of these outcome classes. active, inactive

Input: Could you please tell me the result logged for `CC(C)(C)n1nc2c(c1NC(=O)c1cc3ccccc3o1)CSC2` in this assay?
Output: inactive

Input: Could you please tell me the result logged for `O=C(Nc1ccc(O)cc1)c1ccc(NC(=O)c2ccco2)cc1` in this assay?
Output: inactive

Input: Could you please tell me the result logged for `COc1ccccc1C(=O)Nc1ccc(NC(=O)c2ccco2)c(C)c1` in this assay?
Output: active

Input: Could you please tell me the result logged for `O=S(=O)(c1ccc(F)cc1)N1CCN(C(=S)NCc2ccco2)CC1` in this assay?
Output: inactive

Input: Could you please tell me the result logged for `CCCn1c(=O)c2c(C(F)(F)F)cc(-c3cccs3)nc2n(CCC)c1=O` in this assay?
Output: inactive

Input: Could you please tell me the result logged for `COc1ccc(NC(=O)c2ccco2)cc1NC(=O)c1ccc(C#N)cc1F` in this assay?
Output: inactive

Input: Could you please tell me the result logged for `CC[N+](C)(CC)CCC[n+]1c(-c2ccccc2)c2cc(N)ccc2c2ccc(N)cc21` in this assay?
Output: active

Input: Could you please tell me the result logged for `CCN(CC(=O)Nc1ccccc1C(F)(F)F)C(=O)C1CCN(C(=O)Nc2ccccc2)CC1` in this assay?
Output: inactive

Input: Could you please tell me the result logged for `Cc1cccc(OCC(=O)Nc2ccc(NC(=O)c3ccco3)c(C)c2)c1` in this assay?
Output: inactive

Input: Could you please tell me the result logged for `COc1ccc(OCC(=O)Nc2ccc(NC(=O)c3ccco3)c(C)c2)cc1` in this assay?
Output: inactive
